Reference source for all entries: patent US20100227921A1

experiment: Comparative bioavailability after oral administration to rats (plasma LC-MS-MS); assay type: in vivo; settings: Sprague Dawley, plasma; male rat, oral tapentadol valine carbamate 10 mg tapentadol free base equiv/kg, 6 h; individual animals 6-10; read-out: Plasma concentration of tapentadol valine carbamate
Measured Attribute: concentration at 6 h

| Compound | Measured Attribute | Result |
| --- | --- | --- |
| CC[C@H](c1cccc(OC(=O)N[C@H](C(=O)O)C(C)C)c1)[C@H](C)CN(C)C (racemic) [Tapentadol valine carbamate] | concentration at 6 h | 30.5 ng/mL |

----------
experiment: Comparative bioavailability after oral or intravenous administration to monkeys (plasma LC-MS-MS); format: in vivo, cynomolgus monkey; conditions: male, cynomolgus, cynomolgus monkey, plasma, po, 1 mg tapentadol free base equiv/kg, male monkey, oral tapentadol valine carbamate 1 mg tapentadol free base equiv/kg; individual animals 1-5

| Molecule | Unit Label | Tmax |
| --- | --- | --- |
| CC[C@H](c1cccc(OC(=O)N[C@H](C(=O)O)C(C)C)c1)[C@H](C)CN(C)C (racemic) [Tapentadol valine carbamate] | min | 30 |

----------
Test: Comparative bioavailability after oral or intravenous administration to monkeys (plasma LC-MS-MS)
Assay type: in vivo, cynomolgus monkey
Settings: cynomolgus monkey, plasma, iv; male monkey, i.v. tapentadol valine carbamate 0.5 mg tapentadol free base equiv/kg, 1 h; individual animals 1-5
Procedure: Test substances i.e., tapentadol and tapentadol valine carbamate were administered (either intravenously or orally) to a group of five male cynomolgus monkeys in a three way crossover design. […] Blood samples were taken at various times after administration and submitted to analysis for the parent drug and tapentadol valine carbamate using a validated LC-MS-MS assay. Pharmacokinetic parameters derived from the plasma analytical data were determined using Win Nonlin.
Measured Attribute: concentration at 1 h

| Compound | Measured Attribute | Result |
| --- | --- | --- |
| CC[C@H](c1cccc(OC(=O)N[C@H](C(=O)O)C(C)C)c1)[C@H](C)CN(C)C (racemic) [Tapentadol valine carbamate] | concentration at 1 h | 222 ng/mL |

----------
test: Comparative bioavailability after oral administration to rats (plasma LC-MS-MS); assay type: in vivo; conditions: male, Sprague Dawley, rat, plasma, po, 10 mg tapentadol free base equiv/kg, oral tapentadol valine carbamate 10 mg tapentadol free base equiv/kg, 0.5 h, mean, read-out: Plasma concentration of tapentadol valine carbamate

| Compound | concentration at 0.5 h / ng/mL |
| --- | --- |
| CC[C@H](c1cccc(OC(=O)N[C@H](C(=O)O)C(C)C)c1)[C@H](C)CN(C)C (racemic) [Tapentadol valine carbamate] | 83.8 |

----------
test: Comparative bioavailability after oral or intravenous administration to monkeys (plasma LC-MS-MS); format: in vivo, cynomolgus monkey; conditions: cynomolgus monkey, plasma, iv; male monkey, i.v. tapentadol valine carbamate 0.5 mg tapentadol free base equiv/kg, 0.25 h; individual animals 1-5

| Molecule | Unit Label | concentration at 0.25 h |
| --- | --- | --- |
| CC[C@H](c1cccc(OC(=O)N[C@H](C(=O)O)C(C)C)c1)[C@H](C)CN(C)C (racemic) [Tapentadol valine carbamate] | ng/mL | 783 |

----------
experiment: Comparative bioavailability after oral administration to rats (plasma LC-MS-MS); assay type: in vivo; details: Sprague Dawley, plasma; male rat, oral tapentadol valine carbamate 10 mg tapentadol free base equiv/kg, 2 h; individual animals 6-10; read-out: Plasma concentration of tapentadol valine carbamate
Measured Attribute: concentration at 2 h (ng/mL)

| Molecule | Recorded Number |
| --- | --- |
| CC[C@H](c1cccc(OC(=O)N[C@H](C(=O)O)C(C)C)c1)[C@H](C)CN(C)C (racemic) [Tapentadol valine carbamate] | 85.8 |

----------
test: Comparative bioavailability after oral administration to rats (plasma LC-MS-MS); assay type: in vivo; settings: male, Sprague Dawley, rat, plasma, po, 10 mg free base equiv/kg, oral tapentadol 10 mg free base equiv/kg, 4 h, mean, animal 5 excluded, read-out: Plasma concentration of tapentadol
Measured Attribute: concentration at 4 h (ng/mL)

| Compound | Measured Attribute | Recorded Number |
| --- | --- | --- |
| CC[C@@H](c1cccc(O)c1)[C@@H](C)CN(C)C (racemic) [Tapentadol] | concentration at 4 h | 2.39 |

----------
Assay: Comparative bioavailability after oral or intravenous administration to monkeys (plasma LC-MS-MS)
Format: in vivo, cynomolgus monkey
Conditions: male, cynomolgus, cynomolgus monkey, plasma, po, 1 mg tapentadol free base equiv/kg, male monkey, oral tapentadol valine carbamate 1 mg tapentadol free base equiv/kg; median
Method: Test substances i.e., tapentadol and tapentadol valine carbamate were administered (either intravenously or orally) to a group of five male cynomolgus monkeys in a three way crossover design. […] Blood samples were taken at various times after administration and submitted to analysis for the parent drug and tapentadol valine carbamate using a validated LC-MS-MS assay. Pharmacokinetic parameters derived from the plasma analytical data were determined using Win Nonlin.

| Molecule | Tmax |
| --- | --- |
| CC[C@H](c1cccc(OC(=O)N[C@H](C(=O)O)C(C)C)c1)[C@H](C)CN(C)C (racemic) [Tapentadol valine carbamate] | 30 min |

----------
Assay: Comparative bioavailability after oral or intravenous administration to monkeys (plasma LC-MS-MS)
Type: in vivo, cynomolgus monkey
Details: cynomolgus monkey, plasma, iv; male monkey, i.v. tapentadol valine carbamate 0.5 mg tapentadol free base equiv/kg, 2 h; individual animals 1-5
Experimental: Test substances i.e., tapentadol and tapentadol valine carbamate were administered (either intravenously or orally) to a group of five male cynomolgus monkeys in a three way crossover design. […] Blood samples were taken at various times after administration and submitted to analysis for the parent drug and tapentadol valine carbamate using a validated LC-MS-MS assay. Pharmacokinetic parameters derived from the plasma analytical data were determined using Win Nonlin.
Measured Attribute: concentration at 2 h (ng/mL)

| Compound | Recorded Number |
| --- | --- |
| CC[C@H](c1cccc(OC(=O)N[C@H](C(=O)O)C(C)C)c1)[C@H](C)CN(C)C (racemic) [Tapentadol valine carbamate] | 92.3 |

----------
assay: Comparative bioavailability after oral or intravenous administration to monkeys (plasma LC-MS-MS); format: in vivo, cynomolgus monkey; details: cynomolgus monkey, plasma, iv; male monkey, i.v. tapentadol valine carbamate 0.5 mg tapentadol free base equiv/kg, 0.083 h; individual animals 1-5

| Compound | Unit Label | concentration at 0.083 h |
| --- | --- | --- |
| CC[C@H](c1cccc(OC(=O)N[C@H](C(=O)O)C(C)C)c1)[C@H](C)CN(C)C (racemic) [Tapentadol valine carbamate] | ng/mL | 790 |

----------
test: Comparative bioavailability after oral administration to rats (plasma LC-MS-MS); assay type: in vivo; details: male, Sprague Dawley, rat, plasma, po, 10 mg free base equiv/kg, oral tapentadol 10 mg free base equiv/kg, 8 h, mean, animal 5 excluded, read-out: Plasma concentration of tapentadol
Measured Attribute: concentration at 8 h (ng/mL)

| Compound | Recorded Number |
| --- | --- |
| CC[C@@H](c1cccc(O)c1)[C@@H](C)CN(C)C (racemic) [Tapentadol] | 1.01 |

----------
assay: Comparative in vivo bioavailability study in the dog (oral gavage, plasma LC-MS-MS); details: Beagle, plasma, po, 1 mg/kg, oral tapentadol HCl 1 mg tapentadol base equiv/kg, median of 5 dogs, read-out: Tmax of tapentadol

| Compound | Tmax |
| --- | --- |
| CC[C@@H](c1cccc(O)c1)[C@@H](C)CN(C)C (racemic) | 30 min |

----------
Experiment: Comparative in vivo bioavailability study in the dog (oral gavage, plasma LC-MS-MS)
Settings: Beagle, plasma, po, 1 mg/kg, oral tapentadol HCl 1 mg tapentadol base equiv/kg, individual dogs 1-5, read-out: Tmax of tapentadol
Protocol: Test substances (i.e., tapentadol (1 mg/kg) and tapentadol valine carbamate (0.8 mg tapentadol base equivalents/kg)) were administered by oral gavage to a group of five dogs (dog nos. 1, 2, 3, 4 and 5) in a two-way crossover design. […] Blood samples were taken at various times after administration and submitted to analysis for the parent drug and pro-drug using a validated LC-MS-MS assay. Pharmacokinetic parameters derived from the plasma analytical data were determined using Win Nonlin.
Measured Attribute: Tmax (min)

| Compound | Measured Attribute | Recorded Number |
| --- | --- | --- |
| CC[C@@H](c1cccc(O)c1)[C@@H](C)CN(C)C (racemic) | Tmax | 30 |

----------
experiment: Comparative bioavailability after oral or intravenous administration to monkeys (plasma LC-MS-MS); assay type: in vivo, cynomolgus monkey; details: male, cynomolgus monkey, plasma, iv, 0.5 mg/kg, male monkey, i.v. tapentadol valine carbamate 0.5 mg tapentadol free base equiv/kg; mean; read-out: Vss of tapentadol valine carbamate

| Compound | Unit Label | Vd |
| --- | --- | --- |
| CC[C@H](c1cccc(OC(=O)N[C@H](C(=O)O)C(C)C)c1)[C@H](C)CN(C)C (racemic) [Tapentadol valine carbamate] | L/kg | 0.564 |

----------
experiment: Comparative bioavailability after oral administration to rats (plasma LC-MS-MS); format: in vivo; conditions: male, Sprague Dawley, rat, plasma, po, 10 mg free base equiv/kg, oral tapentadol 10 mg free base equiv/kg, mean, animal 5 and estimates excluded

| Compound | AUC |
| --- | --- |
| CC[C@@H](c1cccc(O)c1)[C@@H](C)CN(C)C (racemic) | 17.9 ng·h/mL |
